Tested on: PEO-1
Assay: Excess HSA synergy score (sum over dose matrix of excess over highest single agent) (score (summed % response)); higher = less synergy / more antagonism (negative = synergy)
Details: 72 h; read-out: viability/apoptosis luminescence (CellTiter-Glo or Caspase3-Glo / not stated per table); matrix design: 6x6, 5-fold dilutions (primary screen)
Whole data set: some 1,500 compounds, median “Excess HSA synergy score (sum over dose matrix of excess over highest single agent)” near 43, cut for the lowest 2% near -900. Only a selection was taken, and the lowest values are over-represented in it overall.
With a cut-off of 50, any Excess HSA synergy score strictly below it is called Satisfied; any Excess HSA synergy score meeting it or above is called Not satisfied.

COMPOUND	CLASS
O=C(CCN1CCN(C(=O)OCc2cc(Cl)cc(Cl)c2)CC1)c1ccc2[nH]c(=O)oc2c1 + CC[C@H](NC(=O)[C@H](C)NC)C(=O)N1C[C@@H](O)C[C@H]1Cc1c(-c2[nH]c3cc(F)ccc3c2C[C@@H]2C[C@H](O)CN2C(=O)[C@H](CC)NC(=O)[C@H](C)NC)[nH]c2cc(F)ccc12 [Birinapant]	Satisfied
NC(=O)c1cccc(-c2cccc(OC(=O)NC3CCCCC3)c2)c1 + CC[C@H](NC(=O)[C@H](C)NC)C(=O)N1C[C@@H](O)C[C@H]1Cc1c(-c2[nH]c3cc(F)ccc3c2C[C@@H]2C[C@H](O)CN2C(=O)[C@H](CC)NC(=O)[C@H](C)NC)[nH]c2cc(F)ccc12 [Birinapant]	Satisfied
Cc1ccc(F)c(NC(=O)Nc2ccc(-c3cccc4[nH]nc(N)c34)cc2)c1 [Linifanib] + CC[C@H](NC(=O)[C@H](C)NC)C(=O)N1C[C@@H](O)C[C@H]1Cc1c(-c2[nH]c3cc(F)ccc3c2C[C@@H]2C[C@H](O)CN2C(=O)[C@H](CC)NC(=O)[C@H](C)NC)[nH]c2cc(F)ccc12 [Birinapant]	Satisfied
CCC(CC)CC1(C(=O)Nc2ccccc2SC(=O)C(C)C)CCCCC1 [Dalcetrapib] + CC[C@H](NC(=O)[C@H](C)NC)C(=O)N1C[C@@H](O)C[C@H]1Cc1c(-c2[nH]c3cc(F)ccc3c2C[C@@H]2C[C@H](O)CN2C(=O)[C@H](CC)NC(=O)[C@H](C)NC)[nH]c2cc(F)ccc12 [Birinapant]	Not satisfied
Cc1cccc(Nc2nc(-c3ccncc3)cs2)c1 + CC[C@H](NC(=O)[C@H](C)NC)C(=O)N1C[C@@H](O)C[C@H]1Cc1c(-c2[nH]c3cc(F)ccc3c2C[C@@H]2C[C@H](O)CN2C(=O)[C@H](CC)NC(=O)[C@H](C)NC)[nH]c2cc(F)ccc12 [Birinapant]	Not satisfied
Cc1c(-c2cccc3c(CCCOc4cccc5ccccc45)c(C(=O)O)n(Cc4cccnc4)c23)c(COc2ccc(N3CCN([S+](=O)([O-])N(C)C)CC3)cc2)nn1C + CC[C@H](NC(=O)[C@H](C)NC)C(=O)N1C[C@@H](O)C[C@H]1Cc1c(-c2[nH]c3cc(F)ccc3c2C[C@@H]2C[C@H](O)CN2C(=O)[C@H](CC)NC(=O)[C@H](C)NC)[nH]c2cc(F)ccc12 [Birinapant]	Not satisfied
O=C1NC(=O)[C@@H](c2cn3c4c(cccc24)CCC3)[C@@H]1c1c[nH]c2ccccc12 [Tivantinib] + CC[C@H](NC(=O)[C@H](C)NC)C(=O)N1C[C@@H](O)C[C@H]1Cc1c(-c2[nH]c3cc(F)ccc3c2C[C@@H]2C[C@H](O)CN2C(=O)[C@H](CC)NC(=O)[C@H](C)NC)[nH]c2cc(F)ccc12 [Birinapant]	Satisfied
